Listed next: entries and their corresponding IC50.
- TEST SYSTEM: uterine OT receptors (Rattus norvegicus)
- Construct: from tissue; host or cells: uterus of DES-treated rats, crude membranes
- Sequence (P70536 1-388): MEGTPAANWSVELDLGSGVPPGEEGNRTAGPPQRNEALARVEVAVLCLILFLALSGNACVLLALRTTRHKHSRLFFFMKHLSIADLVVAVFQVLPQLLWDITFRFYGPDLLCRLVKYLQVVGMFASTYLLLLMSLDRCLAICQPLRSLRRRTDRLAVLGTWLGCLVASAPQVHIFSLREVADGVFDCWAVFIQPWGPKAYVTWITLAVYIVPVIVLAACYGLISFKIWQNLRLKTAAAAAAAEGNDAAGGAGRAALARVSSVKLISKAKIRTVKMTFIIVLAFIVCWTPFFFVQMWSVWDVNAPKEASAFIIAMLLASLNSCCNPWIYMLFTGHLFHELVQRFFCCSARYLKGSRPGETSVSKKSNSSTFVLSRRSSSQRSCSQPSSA
- METHOD: [^3 H]OT binding to uterine OT receptors, crude membrane preparation of uteri from DES-treated rats
- TEST CONDITIONS: rat uterus membranes, 1 nM [^3 H]OT; read-out: Receptor Binding Results IC50 (nM) [^3 H]OT
Numbered stars: 1 amine (or outer) side, 2 acyl side, 3 side chain; on linkers, the order of the positions; unused ones are H or OH. Square brackets hold non-standard residues; d marks the D form. Peptide text beside a SMILES is read from it. dPip(4-aza,4-Cbz) = O=C(O)[C@H]1CN(C(=O)OCc2ccccc2)CCN1; X2 = O=C(OCc1ccccc1)N1CCN([*:1])[C@H](C(=O)[*:2])C1; d2Nal = N[C@H](Cc1ccc2ccccc2c1)C(=O)O; X3 = O=C([C@@H]1C=CCCN1[*:1])[*:2]; Pip(4-aza) = O=C(O)[C@@H]1CNCCN1; dNMeF = CN[C@H](Cc1ccccc1)C(=O)O; dPip = O=C(O)[C@H]1CCCCN1
MEASURED PARAMETER: IC50 (nM)

COMPOUND	MEASURED PARAMETER	MEASURED
CC[C@H](C)[C@@H]1NC(=O)[C@@H](Cc2ccc3ccccc3c2)NC(=O)[C@@H]2CCCN2C(=O)[C@@H](Cc2c[nH]cn2)NC(=O)[C@@H]2CNCCN2C(=O)[C@H]2CCCCN2C1=O [Example 159] (cyclo(I[dPip][Pip(4-aza)][dH]P[d2Nal]))	IC50	1.8
CC[C@H](C)[C@@H]1NC(=O)[C@@H](Cc2ccccc2)NC(=O)[C@@H]2CCCN2C(=O)[C@@H](Cc2ccccc2)NC(=O)[C@@H]2CN(C(=O)OCc3ccccc3)CCN2C(=O)[C@H]2CCCCN2C1=O [Example 77] (cyclo(I[dPip][X2][dF]P[dF]))	IC50	240
CC[C@H](C)[C@@H]1NC(=O)[C@@H](Cc2ccccc2)NC(=O)[C@@H]2CCCN2C(=O)[C@@H](Cc2ccccc2)N(C)C(=O)[C@H]2CN(C(=O)OCc3ccccc3)CCN2C(=O)[C@H]2CN(C(=O)OCc3ccccc3)CCN2C1=O [Example 85] (cyclo([dF]I[dPip(4-aza,4-Cbz)][dPip(4-aza,4-Cbz)][dNMeF]P))	IC50	1000
CC[C@H](C)[C@@H]1NC(=O)[C@@H](Cc2ccccc2)NC(=O)[C@@H]2CCCN2C(=O)[C@@H](Cc2ccccc2)N(C)C(=O)[C@@H]2C=CCCN2C(=O)[C@H]2CCCCN2C1=O [Example 23] (cyclo(I[dPip][X3][dNMeF]P[dF]))	IC50	625

* * *

- TEST SYSTEM: AVP-V1 sites (Rattus norvegicus, UniProt P30560)
- Construct: crude membrane preparation of male rat liver (AVP-V1 sites); from tissue; host or cells: male rat liver, crude membranes
- Sequence (P30560 whole entry): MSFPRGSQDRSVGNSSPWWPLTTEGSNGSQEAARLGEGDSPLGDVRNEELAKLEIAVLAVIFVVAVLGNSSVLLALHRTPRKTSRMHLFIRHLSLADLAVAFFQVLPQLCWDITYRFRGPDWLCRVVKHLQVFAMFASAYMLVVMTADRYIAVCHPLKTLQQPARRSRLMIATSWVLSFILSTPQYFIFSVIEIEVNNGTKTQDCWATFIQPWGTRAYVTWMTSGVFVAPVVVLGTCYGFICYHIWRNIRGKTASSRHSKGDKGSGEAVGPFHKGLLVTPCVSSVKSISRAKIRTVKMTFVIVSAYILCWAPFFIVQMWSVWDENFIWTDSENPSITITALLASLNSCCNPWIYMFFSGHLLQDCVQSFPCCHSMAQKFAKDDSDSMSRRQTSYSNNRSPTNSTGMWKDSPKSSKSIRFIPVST
- METHOD: [^3 H]AVP binding to crude membrane preparation of male rat liver (AVP-V1 sites)
- TEST CONDITIONS: read-out: Receptor Binding Results IC50 (nM) [^3 H]-AVP-V1
Numbered stars: 1 amine (or outer) side, 2 acyl side, 3 side chain; on linkers, the order of the positions; unused ones are H or OH. Square brackets hold non-standard residues; d marks the D form. Peptide text beside a SMILES is read from it. * marks the point of attachment. dPip(4-aza,4-Cbz) = O=C(O)[C@H]1CN(C(=O)OCc2ccccc2)CCN1; dPiz(1,6-dehydro) = O=C(O)[C@H]1CCC=NN1; d2Nal = N[C@H](Cc1ccc2ccccc2c1)C(=O)O; d(hPhe) = N[C@H](CCc1ccccc1)C(=O)O; Pip(4-aza) = O=C(O)[C@@H]1CNCCN1; X6 = O=C([C@H]1CCCNN1[*:1])[*:2]; dNMeF = CN[C@H](Cc1ccccc1)C(=O)O; dPip(4-aza) = O=C(O)[C@H]1CNCCN1; X7 = C[N+]12CCC(CC1)C(C(=O)*)C2; Pip = O=C(O)[C@@H]1CCCCN1; dPip = O=C(O)[C@H]1CCCCN1
MEASURED PARAMETER: log10 of IC50 (log10 of the value in nM)

MOLECULE	log10 of IC50
CC[C@H](C)[C@@H]1NC(=O)[C@@H](Cc2ccccc2)NC(=O)[C@@H]2CCCN2C(=O)[C@@H](Cc2ccccc2)NC(=O)[C@H]2CNCCN2C(=O)[C@H]2CCCCN2C1=O [Example 78] (cyclo(I[dPip][dPip(4-aza)][dF]P[dF]))	3.90
CC[C@H](C)[C@@H]1NC(=O)[C@@H](Cc2ccccc2)NC(=O)[C@@H]2CCCN2C(=O)[C@@H](Cc2ccccc2)N(C)C(=O)[C@H](CCCNC(=N)N)NC(=O)[C@H]2CCC=NN2C1=O [Example 131] (cyclo(I[dPiz(1,6-dehydro)]R[dNMeF]P[dF]))	2.60
CC[C@H](C)[C@@H]1NC(=O)[C@@H](Cc2ccccc2)NC(=O)[C@@H]2CCCN2C(=O)[C@@H](Cc2ccccc2)NC(=O)[C@@H]2CCCCN2C(=O)[C@H]2CCCCN2C1=O [Example 103] (cyclo(I[dPip][Pip][dF]P[dF]))	3.76
CC[C@H](C)[C@@H]1NC(=O)[C@@H](Cc2c[nH]c3ccccc23)NC(=O)[C@@H]2CCCN2C(=O)[C@@H](Cc2cnc[nH]2)NC(=O)[C@@H]2CCCCN2C(=O)[C@H]2CCC=NN2C1=O [Example 184] (cyclo(I[dPiz(1,6-dehydro)][Pip][dH]P[dW]))	3.60
CC[C@H](C)[C@@H]1NC(=O)[C@@H](Cc2ccccc2)NC(=O)[C@@H]2CCCN2C(=O)[C@@H](Cc2ccccc2)NC(=O)[C@H]2CN(C(=O)OCc3ccccc3)CCN2C(=O)[C@H]2CCCCN2C1=O [Example 76] (cyclo(I[dPip][dPip(4-aza,4-Cbz)][dF]P[dF]))	3.97
CC[C@H](C)[C@@H]1NC(=O)[C@@H](CCc2ccccc2)NC(=O)[C@@H]2CCCN2C(=O)[C@@H](Cc2ccccc2)N(C)C(=O)[C@@H]2CCCCN2C(=O)[C@H]2CCCCN2C1=O [Example 165] (cyclo(I[dPip][Pip][dNMeF]P[d(hPhe)]))	3.82
CC[C@H](C)[C@@H]1NC(=O)[C@@H](Cc2ccc3ccccc3c2)NC(=O)[C@@H]2CCCN2C(=O)[C@@H](Cc2ccccc2)N(C)C(=O)[C@H](CCCCNC(=O)C2C[N+]3(C)CCC2CC3)NC(=O)[C@H]2CCCCN2C1=O (stereo partly shown) [Example 151] (cyclo(I[dPip]K(X7)[dNMeF]P[d2Nal]))	2.59
CC[C@H](C)[C@@H]1NC(=O)C(Cc2c[nH]c3ccc(F)cc23)NC(=O)[C@@H]2CCCN2C(=O)[C@@H](Cc2c[nH]cn2)NC(=O)[C@@H]2CCCCN2C(=O)[C@H]2CCCCN2C1=O (single isomer, unassigned)	4.11
CC[C@H](C)[C@@H]1NC(=O)[C@@H](Cc2ccccc2)NC(=O)[C@@H]2CCCN2C(=O)[C@@H](Cc2ccccc2)N(C)C(=O)[C@@H]2CCCCN2C(=O)[C@H]2CCCNN2C1=O [Example 111] (cyclo(I[X6][Pip][dNMeF]P[dF]))	3.62
CC[C@H](C)[C@@H]1NC(=O)[C@@H](Cc2c[nH]c3ccccc23)NC(=O)[C@@H]2CCCN2C(=O)[C@@H](Cc2ccccc2)N(C)C(=O)[C@@H]2CNCCN2C(=O)[C@H]2CCC=NN2C1=O [Example 170] (cyclo(I[dPiz(1,6-dehydro)][Pip(4-aza)][dNMeF]P[dW]))	3.84

* * *

- TEST SYSTEM: uterine OT receptors (Rattus norvegicus, UniProt P70536)
- Construct: from tissue; host or cells: uterus of DES-treated rats, crude membranes
- METHOD: [^3 H]OT binding to uterine OT receptors, crude membrane preparation of uteri from DES-treated rats
- TEST CONDITIONS: rat uterus membranes, 1 nM [^3 H]OT; read-out: Receptor Binding Results IC50 (nM) [^3 H]OT
- Protocol: Competition studies were conducted at equilibrium (60 minutes; 22° C.) using 1 nM [^3 H]OT in the following assay buffer: 50 mM Tris-HCl, 5 mM MgCl2, and 0.1% BSA, pH 7.4.
Square brackets hold non-standard residues; d marks the D form. Peptide text beside a SMILES is read from it. * marks the point of attachment. d2Nal = N[C@H](Cc1ccc2ccccc2c1)C(=O)O; dNMeF = CN[C@H](Cc1ccccc1)C(=O)O; X7 = C[N+]12CCC(CC1)C(C(=O)*)C2; dPip = O=C(O)[C@H]1CCCCN1

COMPOUND	UNIT SYMBOL	IC50
CC[C@H](C)[C@@H]1NC(=O)[C@@H](Cc2ccc3ccccc3c2)NC(=O)[C@@H]2CCCN2C(=O)[C@@H](Cc2ccccc2)N(C)C(=O)[C@H](CCCCNC(=O)C2C[N+]3(C)CCC2CC3)NC(=O)[C@H]2CCCCN2C1=O (some centres unmarked) [Example 151] (cyclo(I[dPip]K(X7)[dNMeF]P[d2Nal]))	nM	10
CC[C@H](C)[C@@H]1NC(=O)[C@@H](Cc2ccccc2)NC(=O)[C@@H]2CCCN2C(=O)[C@@H](Cc2ccccc2)NC(=O)[C@H](Cc2c[nH]cn2)NC(=O)[C@@H](Cc2c[nH]cn2)NC1=O [Example 69] (cyclo(H[dF]P[dF]I[dH]))	nM	10000

The values you see were collected from patent US5225528A.
